System: wheat aphid
assay_comment: Laboratory toxicity test against wheat aphid (Topic application method)
Type: in vivo
test_parameters: third instar larva, topical 0.083 μl in acetone, 27° C., 48 hours
experimental_endpoint: log10 LD50 (log10 of the value in μg/larva)
A difference of one corresponds to tenfold LD50; all values are log10 with LD50 in μg/larva.

[[record]]
molecule = "CC(C)[C@H](C(=O)O[C@@H](C#N)c1cccc(Oc2ccc(Br)cc2)c1)c1ccc(OC(F)F)cc1"
experimental_system = "wheat aphid"
experimental_endpoint = "log10 LD50"
meas_value = -3.41

[[record]]
molecule = "CC(C)[C@H](C(=O)O[C@H](C#N)c1cccc(Oc2ccc(Br)cc2)c1)c1ccc(OC(F)F)cc1 [Ia]"
experimental_system = "wheat aphid"
experimental_endpoint = "log10 LD50"
meas_value = -3.75

[[record]]
molecule = "CC(C)[C@@H](C(=O)O[C@H](C#N)c1cccc(Oc2ccc(Br)cc2)c1)c1ccc(OC(F)F)cc1"
experimental_system = "wheat aphid"
experimental_endpoint = "log10 LD50"
meas_value = -2.03

[[record]]
molecule = "CC(C)[C@H](C(=O)O[C@H](C#N)c1cccc(Oc2ccc(Br)cc2)c1)c1ccc(OC(F)F)cc1 (relative stereo) [A]"
experimental_system = "wheat aphid"
experimental_endpoint = "log10 LD50"
meas_value = -3.43

[[record]]
molecule = "CC(C)C(C(=O)OC(C#N)c1cccc(Oc2ccc(Br)cc2)c1)c1ccc(OC(F)F)cc1 (stereo not drawn) [compound I, reference compound]"
experimental_system = "wheat aphid"
experimental_endpoint = "log10 LD50"
meas_value = -3.14


Continue with the next molecule.
What value of measured log10 LD50 is listed for CC(C)[C@@H](C(=O)O[C@@H](C#N)c1cccc(Oc2ccc(Br)cc2)c1)c1ccc(OC(F)F)cc1 ?
-1.30
